Test system: MV4-11 cells
assay.text: MV4-11 Cell Cytotoxicity Assay
Assay type: cell-based, human
condition.description: human, MV4-11 cells, CCK-8

{"compound": "Cc1nn(-c2ccc(C(N)=O)c(NCCOCCOCCNC(=O)C[C@@H]3N=C(c4ccc(Cl)cc4)c4c(sc(C)c4C)-n4c(C)nnc43)c2)c2c1C(=O)CC(C)(C)C2 [Compound 21, trifluoroacetic acid]", "IC50 at 72 h": "0.1 to 1 µM"}
{"compound": "Cc1sc2c(c1C)C(c1ccc(Cl)cc1)=N[C@@H](CC(=O)N1CCC(CN3CCN(Cc4ccc(-n5c(C(=O)NC(C)C)nnc5-c5ccc(O)cc5O)cc4)CC3)CC1)c1nnc(C)n1-2 [Compound 119, trifluoroacetic acid]", "IC50 at 72 h": "< 0.1 µM"}
